Listing: viability, T/C of selected compounds
tested on: K98450-129-R-PDC complex spheroid growth, percent test/control; assay: Anticancer human tumor K98450-129-R-PDC patient-derived colon adenocarcinoma cell line growth inhibition [RAS]; conditions: second compound 0.00949 µM; first compound 0.00316 µM; stronger effect = lower value

Worked examples follow.
>>> test_result("C=CC(=O)N1CCN(c2nc(OCC3CCCN3C)nc3c(F)c(-c4nc(N)cc(C)c4C(F)(F)F)c(Cl)cc23)C(C)C1 (stereo not drawn) + CCn1c(-c2cc(N3CCN(C)CC3)cnc2C(C)OC)c2c3cc(ccc31)-c1csc(n1)CC(NC(=O)C1CC1C)C(=O)N1CCCC(N1)C(=O)OCC(C)(C)C2")
"72.7%"
>>> test_result("C=CC(=O)Nc1cc(Nc2nccc(-c3cn(C)c4ccccc34)n2)c(OC)cc1N(C)CCN(C)C + CCn1c(-c2cc(N3CCN(C)CC3)cnc2C(C)OC)c2c3cc(ccc31)-c1csc(n1)CC(NC(=O)C1CC1C)C(=O)N1CCCC(N1)C(=O)OCC(C)(C)C2")
"74.9%"

Next compound, viability, T/C to be filled in.
The compound CC(C)n1nc(-c2ccc3oc(N)nc3c2)c2c(N)ncnc21 + CCn1c(-c2cc(N3CCN(C)CC3)cnc2C(C)OC)c2c3cc(ccc31)-c1csc(n1)CC(NC(=O)C1CC1C)C(=O)N1CCCC(N1)C(=O)OCC(C)(C)C2 , tested on K98450-129-R-PDC complex spheroid growth, percent test/control, showed viability, T/C of 63.9%

---

Listing: viability, T/C of selected molecules
Test system: K98450-129-R-PDC complex spheroid growth, percent test/control
Assay: Anticancer human tumor K98450-129-R-PDC cell line growth inhibition [RAS];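 further: spheroids exposed to agents for seven days before the viability readout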;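 on viability, T/C: luminescence used as a proxy for viable cell amount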
Conditions: second compound 0.3 µM; first compound 1 µM; stronger effect = lower value
Text: RAS pathway inhibitors in Combinations in Complex Spheroids A high-throughput screen of multi-cell type tumor spheroids was designed to identify active combinations of RAS pathway inhibitors and targeted small molecules. Complex spheroids include a stromal component modeled by human endothelial cells (HUVEC) and fibroblasts modeled by human mesenchymal stem cells (MSCs). […] Compounds. […] If the clinical Cmax for an agent had not been determined, the highest concentration tested was 10 microM. […]

>>> test_result("CC(=O)OC12COC1CC(O)C1(C)C(=O)C(O)C3=C(C)C(OC(=O)C(O)C(NC(=O)OC(C)(C)C)c4ccccc4)CC(O)(C(OC(=O)c4ccccc4)C21)C3(C)C (configuration not stated) + CCn1c(-c2cccnc2C(C)OC)c2c3cc(ccc31)N1CCOC(CC(NC(=O)C(C(C)C)N(C)C(=O)C3(F)CCN(C(=O)C#CC(C)(C)N(C)C)CC3)C(=O)N3CCCC(N3)C(=O)OCC(C)(C)C2)C1")
"16.3%"

The molecule C[C@@H](NC(=O)c1ncnc(N)c1Cl)c1ncc(C(=O)Nc2cc(C(F)(F)F)c(Cl)cn2)s1 + CCn1c(-c2cccnc2C(C)OC)c2c3cc(ccc31)N1CCOC(CC(NC(=O)C(C(C)C)N(C)C(=O)C3(F)CCN(C(=O)C#CC(C)(C)N(C)C)CC3)C(=O)N3CCCC(N3)C(=O)OCC(C)(C)C2)C1 , tested on K98450-129-R-PDC complex spheroid growth, percent test/control, showed viability, T/C of 53.7%

---

test system: K98450-129-R-PDC complex spheroid growth, percent test/control; assay: Anticancer human tumor K98450-129-R-PDC cell line growth inhibition [RAS]; settings: curve of first compound; second compound 0.000949 µM;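 further: spheroids exposed to agents for seven days before the viability readout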
Listing: pIC50 of selected molecules
Quick note: pIC50 values are minus log10 of concentrations in mol/L.

Worked examples follow.
>>> test_result("C=CC(=O)Nc1cc(Nc2nccc(-c3cn(C)c4ccccc34)n2)c(OC)cc1N(C)CCN(C)C + CCn1c(-c2cccnc2C(C)OC)c2c3cc(ccc31)N1CCOC(CC(NC(=O)C(C(C)C)N(C)C(=O)C3(F)CCN(C(=O)C#CC(C)(C)N(C)C)CC3)C(=O)N3CCCC(N3)C(=O)OCC(C)(C)C2)C1")
7.07
>>> test_result("CCc1c2c(nc3ccc(O)cc13)-c1cc3c(c(=O)n1C2)COC(=O)[C@]3(O)CC + CCn1c(-c2cccnc2C(C)OC)c2c3cc(ccc31)N1CCOC(CC(NC(=O)C(C(C)C)N(C)C(=O)C3(F)CCN(C(=O)C#CC(C)(C)N(C)C)CC3)C(=O)N3CCCC(N3)C(=O)OCC(C)(C)C2)C1")
7.77
>>> test_result("CC(=O)OC12COC1CC(O)C1(C)C(=O)C(O)C3=C(C)C(OC(=O)C(O)C(NC(=O)OC(C)(C)C)c4ccccc4)CC(O)(C(OC(=O)c4ccccc4)C21)C3(C)C (stereo not given) + CCn1c(-c2cccnc2C(C)OC)c2c3cc(ccc31)N1CCOC(CC(NC(=O)C(C(C)C)N(C)C(=O)C3(F)CCN(C(=O)C#CC(C)(C)N(C)C)CC3)C(=O)N3CCCC(N3)C(=O)OCC(C)(C)C2)C1")
6.72
>>> test_result("Nc1ccn(C2OC(CO)C(O)C2(F)F)c(=O)n1 (stereo not given) + CCn1c(-c2cc(N3CCN(C)CC3)cnc2C(C)OC)c2c3cc(ccc31)-c1csc(n1)CC(NC(=O)C1CC1C)C(=O)N1CCCC(N1)C(=O)OCC(C)(C)C2")
6.60

Item: C=CC(=O)N1CCN(c2nc(OCC3CCCN3C)nc3c(F)c(-c4nc(N)cc(C)c4C(F)(F)F)c(Cl)cc23)C(C)C1 (stereo not given) + CCn1c(-c2cc(N3CCN(C)CC3)cnc2C(C)OC)c2c3cc(ccc31)-c1csc(n1)CC(NC(=O)C1CC1C)C(=O)N1CCCC(N1)C(=O)OCC(C)(C)C2 | pIC50: 7.04

Item: NC1c2ccccc2OC12CCN(c1cnc3c(N4CCCc5ncccc54)n[nH]c3n1)CC2 (stereo not given) + CCn1c(-c2cc(N3CCN(C)CC3)cnc2C(C)OC)c2c3cc(ccc31)-c1csc(n1)CC(NC(=O)C1CC1C)C(=O)N1CCCC(N1)C(=O)OCC(C)(C)C2 | pIC50: 6.94

Item: C=CC(=O)Nc1cc(Nc2nccc(-c3cn(C)c4ccccc34)n2)c(OC)cc1N(C)CCN(C)C + CCn1c(-c2cc(N3CCN(C)CC3)cnc2C(C)OC)c2c3cc(ccc31)-c1csc(n1)CC(NC(=O)C1CC1C)C(=O)N1CCCC(N1)C(=O)OCC(C)(C)C2 | pIC50: 6.47

---

test system: K98450-129-R-PDC complex spheroid growth, percent test/control; assay: Anticancer human tumor K98450-129-R-PDC cell line growth inhibition [RAS]; details: second compound 0.000949 µM; first compound 0.1 µM; stronger effect = lower value;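 further: spheroids exposed to agents for seven days before the viability readout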;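 on viability, T/C: luminescence used as a proxy for viable cell amount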
endpoint label: viability, T/C (%)
Enter your answer as a number in %; do not include the unit.

Worked examples follow.
>>> test_result("CC1(O)CCCC1n1c(=O)c(C(F)F)cc2cnc(NC3CCN(S(C)(=O)=O)CC3)nc21 (centres undefined) + CCn1c(-c2cc(N3CCN(C)CC3)cnc2C(C)OC)c2c3cc(ccc31)-c1csc(n1)CC(NC(=O)C1CC1C)C(=O)N1CCCC(N1)C(=O)OCC(C)(C)C2")
94.3
>>> test_result("O=C(c1ccc(F)c(F)c1Nc1ccc(I)cc1F)N1CC(O)([C@@H]2CCCCN2)C1 + CCn1c(-c2cc(N3CCN(C)CC3)cnc2C(C)OC)c2c3cc(ccc31)-c1csc(n1)CC(NC(=O)C1CC1C)C(=O)N1CCCC(N1)C(=O)OCC(C)(C)C2")
57.3
>>> test_result("Nc1ccn(C2OC(CO)C(O)C2(F)F)c(=O)n1 (centres undefined) + CCn1c(-c2cc(N3CCN(C)CC3)cnc2C(C)OC)c2c3cc(ccc31)-c1csc(n1)CC(NC(=O)C1CC1C)C(=O)N1CCCC(N1)C(=O)OCC(C)(C)C2")
56.4

Item: CC(Nc1ccc2c(c1)OCCn1cc(N3C(=O)OCC3C(F)F)nc1-2)C(N)=O (centres undefined) + CCn1c(-c2cc(N3CCN(C)CC3)cnc2C(C)OC)c2c3cc(ccc31)-c1csc(n1)CC(NC(=O)C1CC1C)C(=O)N1CCCC(N1)C(=O)OCC(C)(C)C2 | viability, T/C: 83.7

---

system: K98450-129-R-PDC complex spheroid growth, percent test/control; experiment: Anticancer human tumor K98450-129-R-PDC cell line growth inhibition [RAS]; conditions: second compound 3.16 µM; first compound 0.00316 µM; stronger effect = lower value;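 further: spheroids exposed to agents for seven days before the viability readout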;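 on viability, T/C: luminescence used as a proxy for viable cell amount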
Listing: viability, T/C of selected molecules
Enter your answer as a number in %; do not include the unit.

Worked examples follow.
>>> test_result("Nc1ccn(C2OC(CO)C(O)C2(F)F)c(=O)n1 (stereo not drawn) + C#Cc1c(F)ccc2cc(O)cc(-c3ncc4c(N5CC6CCC(C5)N6)nc(OCC56CCCN5CC(F)C6)nc4c3F)c12")
95.7
>>> test_result("C=CC(=O)N1CCN(c2nc(OCC3CCCN3C)nc3c(F)c(-c4nc(N)cc(C)c4C(F)(F)F)c(Cl)cc23)C(C)C1 (stereo not drawn) + C#Cc1c(F)ccc2cc(O)cc(-c3ncc4c(N5CC6CCC(C5)N6)nc(OCC56CCCN5CC(F)C6)nc4c3F)c12")
94.3

Item: CCN1CCN(Cc2ccc(Nc3ncc(F)c(-c4cc(F)c5nc(C)n(C(C)C)c5c4)n3)nc2)CC1 + C#Cc1c(F)ccc2cc(O)cc(-c3ncc4c(N5CC6CCC(C5)N6)nc(OCC56CCCN5CC(F)C6)nc4c3F)c12 | viability, T/C: 90.4
